System: ring stage parasites
MEASUREMENT NOTES: Parasite growth potency assay, 72 hours, LDH readout
Type: cell-based
DETAILS: 72 h, parasite growth measured by LDH assay after 72 hours at 37° C.; 0.7% rings, 2% haematocrit; read-out: EC50
Where a name gives a salt, the structure may show the parent alone.
OBSERVATION TYPE: EC50 (nM)
// note: answer is a bare numeric in nM

MOLECULE | OBSERVATION TYPE | VALUE MEASURED
CCC1(CC)CC(=O)N(Cc2cccc(C(=O)N[C@@H]3c4ccccc4C[C@H]3O)c2)C(=N)N1 [Example 15, trifluoroacetate] | EC50 | 2.6
CCC1(CC)CC(=O)N(C(COC)c2cccc(C(=O)N[C@@H]3c4ccccc4C[C@H]3O)c2)C(=N)N1 (stereo partly drawn) [Example 223] | EC50 | 2.3
CC#CCC[C@H](c1cccc(C(=O)N[C@H]2CCOc3ccccc32)c1)N1C(=N)NC(CC)(CC)CC1=O [Example 74, trifluoroacetate] | EC50 | 0.9

// fetch EC50; item: CCC1(CC)CC(=O)N([C@@H](c2cccc(C(=O)N[C@H]3CC(C)(C)Oc4ccccc43)c2)C(C)c2cccnc2)C(=N)N1 (stereo partly drawn) [Example 96] ; system: ring stage parasites
19.9

// fetch EC50; item: CCC1(CC)CC(=O)N([C@H](CCOC)c2cccc(C(=O)NC3c4ccccc4CCC3O)c2)C(=N)N1 (stereo partly drawn) [Example 226] ; system: ring stage parasites
2.2

// fetch EC50; item: CC[C@@]1(C(C)C)CC(=O)N(Cc2cc(F)cc(C(=O)N[C@H]3CCOc4ccccc43)c2)C(=N)N1 [Example 60, trifluoroacetate] ; system: ring stage parasites
5.8

// fetch EC50; item: CCC1(CC)CC(=O)N([C@H](c2cccc(C(=O)N[C@@H]3c4ccccc4C[C@H]3O)c2)c2cccc(S(C)(=O)=O)c2)C(=N)N1 [Example 124B, trifluoroacetate] ; system: ring stage parasites
53

// fetch EC50; item: CCC1(CC)CC(=O)N([C@H](CCOC)c2cncc(C(=O)N[C@H]3CC(C)(C)Oc4ccccc43)c2)C(=N)N1 [Example 103] ; system: ring stage parasites
0.5

// fetch EC50; item: CC#CCC[C@H](c1cncc(C(=O)N[C@H]2CC(C)(C)Oc3ccccc32)c1)N1C(=N)NC(CC)(CC)CC1=O [Example 111, trifluoroacetate] ; system: ring stage parasites
0.4

// fetch EC50; item: CCC1(CC)CC(=O)N([C@H](c2cccc(C(=O)N[C@H]3CC(C)(C)Oc4ccccc43)c2)c2cncs2)C(=N)N1 (stereo in doubt) [Example 90C] ; system: ring stage parasites
12

// fetch EC50; item: N=C1N[C@@](CC2CC2)(c2ccccc2)CC(=O)N1[C@H](c1cccnc1)c1cccc(C(=O)N[C@H]2CCOc3ccccc32)c1 [Example 8, trifluoroacetate] ; system: ring stage parasites
4.2

// fetch EC50; item: CC(C)[C@]1(C)CC(=O)N([C@@H](c2cccc(C(=O)N[C@@H]3c4ccccc4C[C@H]3O)c2)C23CC(C2)C3)C(=N)N1 [Example 28, trifluoroacetate] ; system: ring stage parasites
1.1

====

Test system: ring stage parasites
MEASUREMENT NOTES: Parasite growth potency assay, 72 hours, LDH readout
Type: cell-based
DETAILS: 72 h, parasite growth measured by LDH assay after 72 hours at 37° C.; 0.7% rings, 2% haematocrit; read-out: EC50
Where a name gives a salt, the structure may show the parent alone.
Reported pEC50 by item:
# pEC50: negative log10 of molar concentration; output just the value

For orientation, consider the following solved cases.
COMPOUND | VALUE MEASURED
C#CCCC[C@H](c1cccc(C(=O)N[C@H]2CCOc3ccccc32)c1)N1C(=N)NC(CC)(CC)CC1=O [Example 210A, trifluoroacetate] | 9.15
COCC[C@H](c1cccc(C(=O)N[C@@H]2c3ccccc3OC(C)(C)[C@@]2(C)O)c1)N1C(=N)NC(C)(C)CC1=O [Example 231] | 8.54
CCC1(CC)CC(=O)N([C@H](CCS(C)(=O)=O)c2cccc(C(=O)N[C@@H]3c4ccccc4C[C@@]3(C)O)c2)C(=N)N1 [Example 154A] | 7.27
CCC1(CC)CC(=O)N(C(CCOC)c2ccc(C(F)(F)F)c(C(=O)N[C@@H]3c4ccccc4C[C@]3(C)O)c2)C(=N)N1 (some centres unmarked) [Example 242] | 8.64

Specify measured pEC50 for CCC1(CC)CC(=O)N([C@H](COCCOC)c2cccc(C(=O)N[C@H]3CC(C)(C)Oc4ccccc43)c2)C(=N)N1 [Example 112A] .
9.52

Specify measured pEC50 for CCC1(CC)CC(=O)N(C(c2cncc(C(=O)N[C@H]3CC(C)(C)Oc4ccccc43)c2)c2cncs2)C(=N)N1 (some centres unmarked) [Example 105A, trifluoroacetate] .
9.30

Specify measured pEC50 for CCC[C@H](c1cccc(C(=O)N[C@H]2CCOc3ccccc32)c1)N1C(=N)NC(CC)(CC)CC1=O [Example 13A, trifluoroacetate] .
9.52

Specify measured pEC50 for CCC1(CC)CC(=O)N(Cc2cccc(C(=O)N[C@H]3CCOc4ccc(Br)cc43)c2)C(=N)N1 (stereo in doubt) [Example 219, trifluoroacetate] .
8.18

Specify measured pEC50 for CCC1(CC)CC(=O)N(Cc2cccc(C(=O)N[C@@H]3c4cc(F)ccc4OC(C)(C)[C@H]3O)c2)C(=N)N1 (stereo in doubt) [Example 147, trifluoroacetate] .
9.00

Specify measured pEC50 for COCC[C@H](c1cccc(C(=O)N[C@@H]2c3cc(F)ccc3C[C@H]2O)c1)N1C(=N)NC(C)(C)CC1=O [Example 200, trifluoroacetate] .
8.15

Specify measured pEC50 for CC[C@]1(c2ccccc2)CC(=O)N(Cc2cc(F)cc(C(=O)N[C@H]3CCOc4ccccc43)c2)C(=N)N1 [Example 52, trifluoroacetate] .
7.70

====

Tested on: ring stage parasites
MEASUREMENT NOTES: Parasite growth potency assay, 72 hours, LDH readout
Assay type: cell-based
DETAILS: 72 h, parasite growth measured by LDH assay after 72 hours at 37° C.; 0.7% rings, 2% haematocrit; read-out: EC50
Counter-ions that a name gives are not always drawn.
Reported EC50 by item:
// note: answer is a bare numeric in nM

For orientation, consider the following solved cases.
COMPOUND | EC50 / nM
COCC[C@H](c1cccc(C(=O)N[C@@H]2c3ccccc3CC2(O)C(F)(F)F)c1)N1C(=N)NC(C)(C)CC1=O (stereo partly drawn) [Example 188, trifluoroacetate] | 7.3
CCC1(CC)CC(=O)N(C(CCOC)c2ccc(C(F)(F)F)c(C(=O)N[C@@H]3c4ccccc4C[C@@]3(C)O)c2)C(=N)N1 (stereo partly drawn) | 9.84

Next compound, EC50 to be filled in.
Specify measured EC50 for N=C1N[C@@](CC2CC2)(c2ccccc2)CC(=O)N1Cc1cc(F)cc(C(=O)N[C@H]2CCOc3ccccc32)c1 [Example 5A, trifluoroacetate] .
16.2

====

Reported EC50 by item:
Test system: ring stage parasites
MEASUREMENT NOTES: Parasite growth potency assay, 72 hours, LDH readout
Type: cell-based
DETAILS: 72 h, parasite growth measured by LDH assay after 72 hours at 37° C.; 0.7% rings, 2% haematocrit; read-out: EC50
Experimental: The parasite stock was maintained at 4% haematocrit in RPMI-Hepes media buffered with sodium bicarbonate and supplemented with 5% heat inactivated human serum and 0.5% albumax. On the day of assay set up, a blood smear of the parasite culture was Giemsa stained and counted. The parasitemia was adjusted to 0.7% rings and the haematocrit was diluted to 2% in RPMI-Hepes media buffered with sodium bicarbonate and supplemented with 5% heat inactivated human serum and 0.5% albumax. […]
Counter-ions that a name gives are not always drawn.
// note: answer is a bare numeric in nM

COMPOUND | EXPERIMENTAL SYSTEM | OUTPUT UNIT | EC50
CCC1(CC)CC(=O)N([C@H](CCOC)c2cccc(C(=O)N[C@@H]3c4ccccc4OC[C@@H]3O)c2)C(=N)N1 [Example 152A, trifluoroacetate] | ring stage parasites | nM | 8.8
CCC1(CC)CC(=O)N(Cc2cc(C(=O)N[C@@H]3c4ccccc4C[C@H]3O)ccn2)C(=N)N1 [Example 38, trifluoroacetate] | ring stage parasites | nM | 31.3
CCC1(CC)CC(=O)N([C@H](CCOC(F)F)c2cccc(C(=O)N[C@@H]3c4ccccc4OC(C)(C)[C@H]3O)c2)C(=N)N1 [Example 159, trifluoroacetate] | ring stage parasites | nM | 0.8
C#CCC[C@@H](c1cncc(C(=O)N[C@H]2CC(C)(C)Oc3ccccc32)c1)N1C(=N)N[C@](C)(C(C)C)CC1=O [Example 114B, trifluoroacetate] | ring stage parasites | nM | 18.4
CCC1(CC)CC(=O)N([C@H](COCCOC)c2cccc(C(=O)N[C@@H]3c4ccccc4C[C@H]3O)c2)C(=N)N1 [Example 140, trifluoroacetate] | ring stage parasites | nM | 3.2
CCC1(CC)CC(=O)N([C@@H](c2cccc(C(=O)N[C@@H]3c4ccccc4C[C@H]3O)c2)C23CC(C2)C3)C(=N)N1 [Example 34, trifluoroacetate] | ring stage parasites | nM | 0.5
CCC1(CC)CC(=O)N([C@H](CCOC(F)F)c2cccc(C(=O)N[C@@H]3c4ccccc4C[C@H]3O)c2)C(=N)N1 [Example 157, trifluoroacetate] | ring stage parasites | nM | 1.8
CC#CCCC(c1cccc(C(=O)NC2CC(C)(C)Oc3ccccc32)c1)N1C(=N)NC(CC)(CC)CC1=O (stereo not drawn) [Example 83A, trifluoroacetate] | ring stage parasites | nM | 62.9
CC(C)[C@]1(C)CC(=O)N([C@H](c2cccnc2)c2cccc(C(=O)N[C@H]3CC(C)(C)Oc4ccccc43)c2)C(=N)N1 [Example 101A, trifluoroacetate] | ring stage parasites | nM | 0.3
CCC1(CC)CC(=O)N(Cc2cccc(C(=O)N[C@H]3CC(C)(C)Oc4c3ccc(F)c4F)c2)C(=N)N1 (stereo in doubt) [Example 117, trifluoroacetate] | ring stage parasites | nM | 1.5

Specify measured EC50 for CCC1(CC)CC(=O)N(Cc2cccc(C(=O)N[C@H]3CCOc4ccccc43)c2)C(=N)N1 [Example 11, trifluoroacetate] .
1.5

Specify measured EC50 for CCC1(CC)CC(=O)N([C@@H](c2cccnc2)c2cccc(C(=O)N[C@H]3CC(C)(C)Oc4ccccc43)c2)C(=N)N1 [Example 100B, trifluoroacetate] .
4.8

Specify measured EC50 for CCC1(CC)CC(=O)N([C@@H](CC(C)C)c2cccc(C(=O)N[C@H]3CCOc4ccccc43)c2)C(=N)N1 [Example 14B, trifluoroacetate] .
55
